Just for reference, paper PMC9911399 is where these values come from.

Reported binding signal values for the following binders.
- TESTED SYSTEM: T1, RBFOX1 RRM (Homo sapiens, UniProt Q9NWB1 109-208)
- T1 sequence: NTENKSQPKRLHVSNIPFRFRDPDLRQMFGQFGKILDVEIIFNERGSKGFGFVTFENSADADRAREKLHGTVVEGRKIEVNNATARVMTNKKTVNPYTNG
- ASSAY EXPLANATION: EMSA; HiTS-Eq, 1 nM pool, 10 min; buffer printed only for the single-RNA assays: 10 mM Tris pH 7.5, 150 mM NaCl, 3.4 mM EDTA, 0.001% NP-40, 30 C
- RECORDED CONDITIONS: tags: His6 N-terminal (pET28a); label: 5' 32P
The full ranking holds about 16,000 sequences; the median of “ka relative to ugcaugu” is about 0.0091, and the highest 2% start at about 0.032. For the sample, the highest values were picked, then their nearest neighbours and some sequences at random.
READOUT: binding signal

- BINDER: "GCUGCUA (DNA:RNA) RNA: GGGAGACCGGAAUUCAGAUUGUCCGCUGCUAUUAAAUCCCGUCGUAGCCACCA DNA 1: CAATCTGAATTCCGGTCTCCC DNA 2: TGGTGGCTACGACGGGATT"
  ENDPOINT RESULT: "0.0167 KA relative to UGCAUGU"
- BINDER: "GAACACU (DNA:RNA) RNA: GGGAGACCGGAAUUCAGAUUGUCCGAACACUUUAAAUCCCGUCGUAGCCACCA DNA 1: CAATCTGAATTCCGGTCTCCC DNA 2: TGGTGGCTACGACGGGATT"
  ENDPOINT RESULT: "0.00588 KA relative to UGCAUGU"
- BINDER: "GCUAGUA (DNA:RNA) RNA: GGGAGACCGGAAUUCAGAUUGUCCGCUAGUAUUAAAUCCCGUCGUAGCCACCA DNA 1: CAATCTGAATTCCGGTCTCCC DNA 2: TGGTGGCTACGACGGGATT"
  ENDPOINT RESULT: "0.0137 KA relative to UGCAUGU"
- BINDER: "AGGACGU (DNA:RNA) RNA: GGGAGACCGGAAUUCAGAUUGUCCAGGACGUUUAAAUCCCGUCGUAGCCACCA DNA 1: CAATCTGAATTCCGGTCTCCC DNA 2: TGGTGGCTACGACGGGATT"
  ENDPOINT RESULT: "0.0265 KA relative to UGCAUGU"
